Measured values drawn from paper PMC6611794 for this set.

Stated conditions: read-out: EC50 PC/PG/2 2nd; PC/PG/2 LUVs, 2nd experiment
Where a SMILES comes first, the peptide text is derived from it. Bridges are numbered along the chain shown (N, C = ends). [ ]: non-standard residue; d: D form. The star is where a group is joined. Hexanoyl(3R-OH,5-Me) = CC(C)C[C@@H](O)CC(=O)*; dNMeF = CN[C@H](Cc1ccccc1)C(=O)O; dOrn = NCCC[C@@H](N)C(=O)O
Recorded metric: pEC50
The scale used: pEC50 is minus the common logarithm of the concentration in molar units.

Reference set, count: 3
CC[C@H](C)[C@@H]1NC(=O)[C@@H](Cc2c[nH]c3ccccc23)NC(=O)[C@@H](CCCN)NC(=O)[C@H](CCC(=O)O)NC(=O)[C@@H](CCCNC(=N)N)NC(=O)[C@H](CC(C)C)NC(=O)[C@@H](Cc2ccccc2)N(C)C(=O)CNC(=O)[C@H](CC(N)=O)NC(=O)[C@@H](CCCNC(=N)N)NC(=O)[C@@H](NC(=O)C[C@H](O)CC(C)C)[C@@H](C)OC(=O)[C@H]([C@@H](C)O)NC1=O [Peptide A14] ({Hexanoyl(3R-OH,5-Me)}-T[dR]NG[dNMeF]L[dR]E[dOrn][dW]IT; ester 1-C) :: 7.10
CC[C@H](C)[C@@H]1NC(=O)[C@@H](Cc2c[nH]c3ccccc23)NC(=O)[C@@H](CCC(N)=O)NC(=O)[C@H](CCC(=O)O)NC(=O)[C@@H](CCCNC(=N)N)NC(=O)[C@H](CC(C)C)NC(=O)[C@@H](Cc2ccccc2)N(C)C(=O)CNC(=O)[C@H](CO)NC(=O)[C@@H](CCCNC(=N)N)NC(=O)[C@@H](NC(=O)C[C@H](O)CC(C)C)[C@@H](C)OC(=O)[C@H]([C@@H](C)O)NC1=O [Peptide 1, Lysocin E] ({Hexanoyl(3R-OH,5-Me)}-T[dR]SG[dNMeF]L[dR]E[dQ][dW]IT; ester 1-C) :: 7.47
CC[C@H](C)[C@@H]1NC(=O)[C@@H](Cc2c[nH]c3ccccc23)NC(=O)[C@@H](C(C)C)NC(=O)[C@H](CCC(=O)O)NC(=O)[C@@H](CCCNC(=N)N)NC(=O)[C@H](CC(C)C)NC(=O)[C@@H](Cc2ccccc2)N(C)C(=O)CNC(=O)[C@H](CCCCN)NC(=O)[C@@H](CCCNC(=N)N)NC(=O)[C@@H](NC(=O)C[C@H](O)CC(C)C)[C@@H](C)OC(=O)[C@H]([C@@H](C)O)NC1=O [Peptide A3] ({Hexanoyl(3R-OH,5-Me)}-T[dR]KG[dNMeF]L[dR]E[dV][dW]IT; ester 1-C) :: 7.84

Provide only the value of recorded pEC50 for CC(C)C[C@@H](O)CC(=O)N[C@@H]1C(=O)N[C@H](CCCNC(=N)N)C(=O)N[C@@H](C)C(=O)NCC(=O)N(C)[C@H](Cc2ccccc2)C(=O)N[C@@H](CC(C)C)C(=O)N[C@H](CCCNC(=N)N)C(=O)N[C@@H](CCC(=O)O)C(=O)N[C@H](Cc2ccc(O)cc2)C(=O)N[C@H](Cc2c[nH]c3ccccc23)C(=O)N[C@@H](Cc2ccc(O)cc2)C(=O)N[C@@H]([C@@H](C)O)C(=O)O[C@@H]1C [Peptide A15] ({Hexanoyl(3R-OH,5-Me)}-T[dR]AG[dNMeF]L[dR]E[dY][dW]YT; ester 1-C)
7.40

Provide only the value of recorded pEC50 for CC[C@H](C)[C@@H]1NC(=O)[C@@H](Cc2c[nH]c3ccccc23)NC(=O)[C@@H](C(C)C)NC(=O)[C@H](CCC(=O)O)NC(=O)[C@@H](CCCNC(=N)N)NC(=O)[C@H](CC(C)C)NC(=O)[C@@H](Cc2ccccc2)N(C)C(=O)CNC(=O)[C@H](C)NC(=O)[C@@H](CCCNC(=N)N)NC(=O)[C@@H](NC(=O)C[C@H](O)CC(C)C)[C@@H](C)OC(=O)[C@H]([C@@H](C)O)NC1=O [Peptide A2] ({Hexanoyl(3R-OH,5-Me)}-T[dR]AG[dNMeF]L[dR]E[dV][dW]IT; ester 1-C)
7.74

---

Protocol text: On-bead menaquinone complexation assay (fluorescence of 2H)
Assay type: binding
Stated conditions: single library bead (hit beads >1000 a.u.); average of three readings
Where a SMILES comes first, the peptide text is derived from it. Bridges are numbered along the chain shown (N, C = ends). [ ]: non-standard residue; d: D form. The star is where a group is joined. Hexanoyl(3R-OH,5-Me) = CC(C)C[C@@H](O)CC(=O)*; dNMeF = CN[C@H](Cc1ccccc1)C(=O)O
// reported fluorescence intensity of 2H per item

CC[C@H](C)[C@@H]1NC(=O)[C@@H](Cc2c[nH]c3ccccc23)NC(=O)[C@@H](CCC(N)=O)NC(=O)[C@H](CCC(=O)O)NC(=O)[C@@H](CCCNC(=N)N)NC(=O)[C@H](CC(C)C)NC(=O)[C@@H](Cc2ccccc2)N(C)C(=O)CNC(=O)[C@H](C)NC(=O)[C@@H](CCCNC(=N)N)NC(=O)[C@@H](NC(=O)C[C@H](O)CC(C)C)[C@@H](C)OC(=O)[C@H]([C@@H](C)O)NC1=O [Peptide A1] ({Hexanoyl(3R-OH,5-Me)}-T[dR]AG[dNMeF]L[dR]E[dQ][dW]IT; ester 1-C) :: 1237.12 a.u.

Next, consider the following molecule.
Provide only the value of recorded fluorescence intensity of 2H for CC(C)C[C@@H](O)CC(=O)N[C@@H]1C(=O)N[C@H](CCCNC(=N)N)C(=O)N[C@@H](C)C(=O)NCC(=O)N(C)[C@H](Cc2ccccc2)C(=O)N[C@@H](CC(C)C)C(=O)N[C@H](CCCNC(=N)N)C(=O)N[C@@H](CCC(=O)O)C(=O)N[C@H](Cc2ccc(O)cc2)C(=O)N[C@H](Cc2c[nH]c3ccccc23)C(=O)N[C@@H](Cc2ccc(O)cc2)C(=O)N[C@@H]([C@@H](C)O)C(=O)O[C@@H]1C [Peptide A15] ({Hexanoyl(3R-OH,5-Me)}-T[dR]AG[dNMeF]L[dR]E[dY][dW]YT; ester 1-C)
1125.25 a.u.

---

Protocol text: Liposomal membrane disruption assay (carboxyfluorescein LUVs)
Assay type: biochemical
Stated conditions: PC/PG/3 LUVs, 1st experiment; read-out: EC50 PC/PG/3 1st
Where a SMILES comes first, the peptide text is derived from it. Bridges are numbered along the chain shown (N, C = ends). [ ]: non-standard residue; d: D form. The star is where a group is joined. Hexanoyl(3R-OH,5-Me) = CC(C)C[C@@H](O)CC(=O)*; dNMeF = CN[C@H](Cc1ccccc1)C(=O)O
Recorded metric: EC50 (nM)
State just the number; it will be interpreted in nM.

Provide only the value of recorded EC50 for CC[C@H](C)[C@@H]1NC(=O)[C@@H](Cc2c[nH]c3ccccc23)NC(=O)[C@@H](C(C)C)NC(=O)[C@H](CCC(=O)O)NC(=O)[C@@H](CCCNC(=N)N)NC(=O)[C@H](CC(C)C)NC(=O)[C@@H](Cc2ccccc2)N(C)C(=O)CNC(=O)[C@H](C)NC(=O)[C@@H](CCCNC(=N)N)NC(=O)[C@@H](NC(=O)C[C@H](O)CC(C)C)[C@@H](C)OC(=O)[C@H]([C@@H](C)O)NC1=O [Peptide A2] ({Hexanoyl(3R-OH,5-Me)}-T[dR]AG[dNMeF]L[dR]E[dV][dW]IT; ester 1-C)
89.7

---

Protocol text: On-bead menaquinone complexation assay (fluorescence of 2H)
Format: binding
Stated conditions: single library bead (hit beads >1000 a.u.); average of three readings
Where a SMILES comes first, the peptide text is derived from it. Bridges are numbered along the chain shown (N, C = ends). [ ]: non-standard residue; d: D form. The star is where a group is joined. Hexanoyl(3R-OH,5-Me) = CC(C)C[C@@H](O)CC(=O)*; dNMeF = CN[C@H](Cc1ccccc1)C(=O)O; dOrn = NCCC[C@@H](N)C(=O)O
// reported fluorescence intensity of 2H per item
State just the number; it will be interpreted in a.u..

CC[C@H](C)[C@@H]1NC(=O)[C@@H](Cc2c[nH]c3ccccc23)NC(=O)[C@@H](CCCN)NC(=O)[C@H](CCC(=O)O)NC(=O)[C@@H](CCCNC(=N)N)NC(=O)[C@H](CC(C)C)NC(=O)[C@@H](Cc2ccccc2)N(C)C(=O)CNC(=O)[C@H](CC(N)=O)NC(=O)[C@@H](CCCNC(=N)N)NC(=O)[C@@H](NC(=O)C[C@H](O)CC(C)C)[C@@H](C)OC(=O)[C@H]([C@@H](C)O)NC1=O [Peptide A14] ({Hexanoyl(3R-OH,5-Me)}-T[dR]NG[dNMeF]L[dR]E[dOrn][dW]IT; ester 1-C) :: 1470.92

Next, consider the following compound.
Provide only the value of recorded fluorescence intensity of 2H for CC[C@H](C)[C@@H]1NC(=O)[C@@H](Cc2c[nH]c3ccccc23)NC(=O)[C@@H](Cc2ccc(O)cc2)NC(=O)[C@H](CCC(=O)O)NC(=O)[C@@H](CCCNC(=N)N)NC(=O)[C@H](CC(C)C)NC(=O)[C@@H](Cc2ccccc2)N(C)C(=O)CNC(=O)[C@H](CC(=O)O)NC(=O)[C@@H](CCCNC(=N)N)NC(=O)[C@@H](NC(=O)C[C@H](O)CC(C)C)[C@@H](C)OC(=O)[C@H]([C@@H](C)O)NC1=O [Peptide A17] ({Hexanoyl(3R-OH,5-Me)}-T[dR]DG[dNMeF]L[dR]E[dY][dW]IT; ester 1-C)
1396.02
